ASSAY EXPLANATION: Pharmacokinetics after repeated oral administration of 250 μg/kg and 35 μg/kg of fluralaner in dogs after feeding
Assay type: in vivo, beagle dogs
RECORDED CONDITIONS: beagle, dog, plasma, po, 48 h; oral 250/35/600 μg/kg regimen, dogs, n=6; read-out: fluralaner concentration levels, Mean
OBSERVATION TYPE: concentration at 48 h (ng/mL)
Express your answer in ng/mL, writing the number without its unit.

Query :: For Cc1cc(C2=NOC(c3cc(Cl)cc(Cl)c3)(C(F)(F)F)C2)ccc1C(=O)NCC(=O)NCC(F)(F)F (stereo not shown) , what is its reported concentration at 48 h?
Result :: 270

---

ASSAY EXPLANATION: Pharmacokinetics after repeated oral administration of 35 μg/kg of fluralaner in dogs after feeding
Type: in vivo, beagle dogs
RECORDED CONDITIONS: oral 35 μg/kg Days 0-3, dogs, n=6
OBSERVATION TYPE: Lambda z, Minimum (h⁻¹)
The figure you give is taken to be in h⁻¹; do not add the unit.

Query :: Endpoint output: Lambda z, Minimum of Cc1cc(C2=NOC(c3cc(Cl)cc(Cl)c3)(C(F)(F)F)C2)ccc1C(=O)NCC(=O)NCC(F)(F)F (stereo not shown) [fluralaner, Fluralaner] . Value?
Result :: 0.0027

---

ASSAY EXPLANATION: Pharmacokinetics after repeated oral administration of 250 μg/kg and 35 μg/kg of fluralaner in dogs after feeding
Type: in vivo, beagle dogs
RECORDED CONDITIONS: beagle, dog, plasma, po, 624 h; oral 250/35/600 μg/kg regimen, dogs, n=6; read-out: fluralaner concentration levels, Median
OBSERVATION TYPE: concentration at 624 h (ng/mL)
Write the value in ng/mL as a bare number.

Query :: Which concentration at 624 h value belongs to Cc1cc(C2=NOC(c3cc(Cl)cc(Cl)c3)(C(F)(F)F)C2)ccc1C(=O)NCC(=O)NCC(F)(F)F (stereo not shown) ?
Result :: 244

---

ASSAY EXPLANATION: Pharmacokinetics after repeated oral administration of 35 μg/kg of fluralaner in dogs after feeding
Format: in vivo, beagle dogs
RECORDED CONDITIONS: beagle, dog, plasma, po, 35 ug/kg, oral 35 μg/kg Days 0-3, dogs; read-out: AUC 0-inf, individual animal
OBSERVATION TYPE: AUC(0-inf) (ng·h/mL)
Provide only the numeric value, understood in ng·h/mL.

Query :: Field request: AUC(0-inf) | item: Cc1cc(C2=NOC(c3cc(Cl)cc(Cl)c3)(C(F)(F)F)C2)ccc1C(=O)NCC(=O)NCC(F)(F)F (stereo not shown)
Result :: 31000

---

ASSAY EXPLANATION: Pharmacokinetics after repeated oral administration of 35 μg/kg of fluralaner in dogs after feeding
Type: in vivo, beagle dogs
RECORDED CONDITIONS: beagle, dog, plasma, po, 35 μg/kg, 240 h; oral 35 μg/kg Days 0-3, dogs, n=6; read-out: fluralaner concentration levels, GeoMean
Experimental: The first objective of the study was to obtain the pharmacokinetic parameters after repeated oral administration of 35 μg/kg of fluralaner in dogs, 30 to 35 minutes after feeding. […] On Days 0, 1, 2 and 3, all dogs assigned to group 2 received the Investigational Veterinary Product. […] The quantity of Investigational Veterinary Product and control product administered was calculated according to the dog's individual body weight measured on Day −1. […]
OBSERVATION TYPE: concentration at 240 h (ng/mL)
Please respond with the number in ng/mL and leave the unit unwritten.

Query :: Name the recorded concentration at 240 h for Cc1cc(C2=NOC(c3cc(Cl)cc(Cl)c3)(C(F)(F)F)C2)ccc1C(=O)NCC(=O)NCC(F)(F)F (stereo not shown) [fluralaner, Fluralaner] .
Result :: 43.9
